System: 2Sp-muMax20 (muMax20 with two 2,6-bis(methyl)pyridine Cys staples)
TEST SUMMARY: PBM 8-mer E-score (E-score (rank enrichment, -0.5 to 0.5)); higher = stronger preferential binding
The full ranking holds about 33,000 sequences; the median of “E-score (rank enrichment, -0.5 to 0.5)” is about -0.0043, and the highest 2% start at about 0.24. Only a selection was taken, and the highest values are over-represented in it overall.
Categories are assigned from the measured PBM 8-mer E-score using these intervals: bin 0: < -0.04; bin 1: ≥ -0.04 and < 0.1; bin 2: ≥ 0.1

Ask | // return the class label for `ACACGCGG`
Reply | bin 2

Ask | // return the class label for `CCACGCGG`
Reply | bin 2

Ask | // return the class label for `CCAATGGG`
Reply | bin 0

Ask | // return the class label for `TGAATCAA`
Reply | bin 2

Ask | // return the class label for `AGACATAT`
Reply | bin 2

Ask | // return the class label for `AAAATCAA`
Reply | bin 0

Ask | // return the class label for `ATACATAA`
Reply | bin 1

Ask | // return the class label for `CGACGTGA`
Reply | bin 1

Ask | // return the class label for `GAAGGTCA`
Reply | bin 0

Ask | // return the class label for `ATATTGTC`
Reply | bin 2

Ask | // return the class label for `CGAATCAG`
Reply | bin 0

Just for reference, the supplement of paper PMC12636033 is where these values come from.
